- target-desc: PARP-1 F2 (Homo sapiens, UniProt P09874 103-214)
- Sequence (P09874 103-214): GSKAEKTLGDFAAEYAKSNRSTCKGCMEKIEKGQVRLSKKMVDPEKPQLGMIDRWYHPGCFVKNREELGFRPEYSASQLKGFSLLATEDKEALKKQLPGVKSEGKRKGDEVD
- experiment-summary: fluorescence anisotropy; 25 mM NaCl, one-site fit; 50 mM Tris-HCl pH 7.0, 150 uM ZnSO4, 4 mM DTT, 25 C; NaCl 0-200 mM (T2, as in cof; 10 nM DNA) or 25 mM (T3 mutants; 25 nM DNA)
- experimental-conditions: protein: recombinant; label: fluorescein-dT at T8; single-chain dumbbell, 18 bp with central nick, two tetraloops
parameter-measured: Kd (nM)
Supply the numeric figure in nM, leaving out any unit text.

Kd in this record for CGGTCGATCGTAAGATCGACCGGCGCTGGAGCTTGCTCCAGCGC (structured_DNA, 5'-phosphate) [44-nt nicked dumbbell, 5'-phosphate, fluorescein-dT] : 343
